Target: Serine protease 1 (Homo sapiens, UniProt P07477)
Sequence (P07477 whole entry): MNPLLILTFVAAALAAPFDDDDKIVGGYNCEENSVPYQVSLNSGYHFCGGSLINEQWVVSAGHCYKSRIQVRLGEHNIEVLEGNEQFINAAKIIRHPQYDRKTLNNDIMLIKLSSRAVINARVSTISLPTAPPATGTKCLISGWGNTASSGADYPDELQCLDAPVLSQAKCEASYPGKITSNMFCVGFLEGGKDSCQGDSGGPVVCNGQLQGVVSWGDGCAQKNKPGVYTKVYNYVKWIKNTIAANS
Assay: Compound was tested for inhibitory activity against trypsin
reportedEndpoint: IC50 (µM)
// units = µM; emit number, no label

q: Give the measured IC50 for COc1cc(C)c(S(=O)(=O)N[C@@H](CC(=O)OC(C)(C)C)C(=O)NC(Cc2ccc3c(N)nccc3c2)C(=O)N2CCCCC2)c(C)c1C (stereo partly specified)
a: 378
